assay: FRG1 expression reporter modulators in myotubes – cell-based, C2C12 myotubes, firefly/Renilla luciferase, luminescence, FRG1 inhibition for FSHD, primary screen (AID 1084); conditions: FRG1 promoter luciferase, higher = more signal, called active from +8 up or from −8 down
readout.type: z-score
Lab note: record just the number, no unit beside it.

Some entries whose results are on file:
COCCCNC(=O)[C@@H]1c2ccccc2C(=O)N(Cc2ccccc2OC)[C@H]1c1ccc(CO)cc1
-1.57
CCN(CC)c1ccc(N2CC=CC34O[C@@H]5C=CCOC(=O)[C@@H]5[C@H]3C(=O)N(CCCCCCO)[C@@H]4C2=O)cc1 (some centres undefined)
-0.766
CC(C)[C@@H](C(=O)O)n1cc(C2(O)CCCCC2)nn1
0.356

Fill in: z-score of [N-]=[N+]=Nc1ccccc1C[C@]1(C(=O)NCc2ccccc2)N=C(c2ccc(OCCCO)cc2)O[C@H]1c1ccccc1N=[N+]=[N-] is ___
-0.899

###

experiment: probe aNog binding to arrayed compounds – biochemical, biotinylated probe, 635/667 nm fluorescence, primary screen (AID 1115); conditions: small-molecule microarray, higher = more signal;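 note: probe is biotinylated aNog protein used at 0.15 µg/mL for 1 h at 4 C; z-score combines 667 nm fluorescence of each spot with its signal to noise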
Measured composite z-score accompanies every entry in the list below.
Simply state the number, no unit and no words.

Some solved entries appear below for comparison.
COc1ccc([Si](C)(C)[C@@H]2[C@@H](CC(=O)N3Cc4ccccc4C[C@H]3CO)O[C@]3(C(=O)N(Cc4cccc(N5CCC5=O)c4)c4ccccc43)[C@H]2C)cc1
0.0001
COc1ccc(C#Cc2ccc3c(c2)[C@]2(C(=O)N3)[C@H](c3ccc(O)cc3)N3[C@H](c4ccccc4)[C@H](c4ccccc4)OC(=O)[C@H]3[C@@H]2C(=O)N2CCc3cc(OC)c(OC)cc3C2)cc1
-0.0503
COCCOC(=O)N1C(=O)[C@@]2(c3ccccc31)[C@H](c1ccc(OCCO)cc1)N1[C@H](c3ccccc3)[C@H](c3ccccc3)OC(=O)[C@H]1[C@@H]2C(=O)N1CCc2cc(OC)c(OC)cc2C1
0.603
CCCCC(=C=CC[C@@H](O)c1cccc(OCCO)c1)C[C@@H](O)c1ccccn1
0.144
CN(C)CCCCNC(=O)[C@@H]1C[C@@H]2C(=O)N[C@@H](CCCCN)C(=O)N2[C@@H]1c1ccc(O)cc1
0.654
OB1C=CCC(CCc2ccccc2)O1 (configuration not stated)
-0.39

Item under review: COc1cc(OC)c(C(O)C2C=CC3C(=O)NC(=O)C3N2Nc2ccccn2)cc1Br (configuration not stated) . Reported composite z-score?
-0.461

Endpoint output: composite z-score of C=C[C@H](C)[C@@H](OC(=O)Nc1ccc(SC)cc1)c1ccc(O)c2ccccc12 . Value?
-0.343

I would be grateful if you could share the reported composite z-score for COCCOC(=O)N1C(=O)[C@@]2(c3cc(C#CCCO)ccc31)[C@H](c1ccc(O)cc1)N1[C@H](c3ccccc3)[C@H](c3ccccc3)OC(=O)[C@H]1[C@@H]2C(=O)N1CCN(c2ncccn2)CC1 .
2.56

###

system: glycogen synthase kinase-3 (GSK3A per assay name; protocol says GSK3B); assay: compounds binding glycogen synthase kinase-3 – biochemical, small-molecule microarray, 635 nm fluorescence, GSK3A, primary screen (AID 1103); conditions: fluorescence 635 nm, higher = more signal; note: the record names both GSK3A and GSK3B
readout.type: composite z-score
Simply state the number, no unit and no words.

O=C1C[C@@](C(=O)NCc2ccccc2)(c2ccc([N+](=O)[O-])cc2)[C@@H](c2ccc(CO)cc2)N1CC12CC3CC(CC(C3)C1)C2
1.13

Record request: composite z-score value, item CCCCC(O)C1C=CC2C(=O)N(C)C(=O)C2N1N1CCCCC1 (stereo unspecified)
-0.0038

Recorded composite z-score of COc1ccc([Si](C)(C)[C@H]2[C@H](CCO)O[C@@]3(C(=O)N(Cc4ccccc4)c4ccc(N5CCCCC5=O)cc43)[C@@H]2C)cc1 , please.
0.737

Consider the compound shown here: COC(=O)C(CC#Cc1ccc2c(c1)[C@]1(C(=O)N2)[C@H](c2ccccc2OCCO)N2[C@H](c3ccccc3)[C@H](c3ccccc3)OC(=O)[C@H]2[C@@H]1C(=O)O)C(=O)OC What is its recorded composite z-score?
0.93

Given CCCCN1CC=CC23O[C@@H]4C=CCCOC(=O)C4[C@H]2C(=O)N(CCCCCO)[C@@H]3C1=O (stereo partly specified) , state its recorded composite z-score.
-0.649

Dear colleague, I am looking for the recorded composite z-score of the following compound: COc1ccc([Si](C)(C)[C@@H]2[C@@H](CCO)O[C@]3(C(=O)N(Cc4cccc(N5CCOC5=O)c4)c4ccccc43)[C@H]2C)cc1
0.67

Need composite z-score of CCCCC(=C=CC[C@@H](O)c1ccc(CO)o1)CCO , thanks.
0.621

Can you look up the measured composite z-score of C=C(C)[C@@H]1CC=C(C(O)C2C=CC3C(=O)NC(=O)C3N2Nc2ccc(Cl)cc2Cl)CC1 (stereo partly specified) for me?
0.289

Give the measured composite z-score of O=C1NC(=O)C2C1C=CC(C(O)c1ccc(I)cc1)N2Nc1ccc(Cl)cc1Cl (stereo unspecified) .
0.782

Tell me the measured composite z-score of OCC1C=C(/C=C/c2ccccc2)CN1Cc1ccccc1Br (stereo unspecified) , please.
0.86

Data request, read-out composite z-score, for O=C1C2C=CC(C(O)c3ccc(F)cc3)N(Nc3ccc([N+](=O)[O-])cc3)C2C(=O)N1c1ccccc1 (stereo unspecified)
1.07

###

molecular target: Albumin (Bos taurus) (UniProt P02769); assay: compounds binding labelled BSA control protein – biochemical, small-molecule microarray, Alexa647 label, 635/667 nm fluorescence, artefact control for SMM control protein annotation, profiling panel (AID 1118); details: BSA-A647 binding, fluorescence 635 nm, higher = more signal;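 note: score merges 667 nm emission intensity and signal-to-noise per printed compound spot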
Sequence (P02769 whole entry, looked up): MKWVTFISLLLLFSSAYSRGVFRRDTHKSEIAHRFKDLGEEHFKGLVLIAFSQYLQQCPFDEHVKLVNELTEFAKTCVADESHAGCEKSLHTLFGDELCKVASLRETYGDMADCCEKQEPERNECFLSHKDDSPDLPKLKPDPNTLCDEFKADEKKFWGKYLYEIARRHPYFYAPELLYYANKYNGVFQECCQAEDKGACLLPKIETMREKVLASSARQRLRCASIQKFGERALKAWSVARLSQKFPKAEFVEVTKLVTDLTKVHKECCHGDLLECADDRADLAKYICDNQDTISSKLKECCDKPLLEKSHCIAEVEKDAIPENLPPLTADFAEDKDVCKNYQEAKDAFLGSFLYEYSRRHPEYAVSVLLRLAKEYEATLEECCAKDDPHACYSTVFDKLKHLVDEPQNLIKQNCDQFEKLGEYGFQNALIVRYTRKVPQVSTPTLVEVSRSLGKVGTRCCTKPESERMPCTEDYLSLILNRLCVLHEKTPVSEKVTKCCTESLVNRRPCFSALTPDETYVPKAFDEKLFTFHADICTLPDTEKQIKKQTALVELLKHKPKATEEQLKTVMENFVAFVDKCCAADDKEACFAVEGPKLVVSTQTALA
Kind request: treat 0.2 as inclusive, so composite z-score at 0.2 or higher is yes (1), anything lower is no (0).

COCC(=C=CC[C@H](O)c1cccc(OCCO)c1)C[C@H](O)c1cc(Cl)cc(Cl)c1O
no (0)
COCCOC(=O)N1C(=O)[C@@]2(c3cc(C#CC4=CCCCC4)ccc31)[C@H](c1ccc(OCCO)cc1)N1[C@H](c3ccccc3)[C@H](c3ccccc3)OC(=O)[C@H]1[C@@H]2C(=O)N1CCc2cc(OC)c(OC)cc2C1
no (0)
O=C1C2C=CC(C(O)c3cc(C(F)(F)F)cc(C(F)(F)F)c3)N(Nc3ccccc3)C2C(=O)N1c1ccccc1 (stereo not given)
no (0)

Is the recorded value of composite z-score equal to or greater than 0.2 for this molecule? CN(C)CCCCCCNC(=O)[C@@H]1C[C@@H]2C(=O)N3CCC[C@H]3C(=O)N2[C@@H]1c1ccc(O)cc1
no (0)

###

assay: changes in parasitized red cell lysis, either direction – P. falciparum Indochina, OD700, 3 h, PSAC antagonist project, primary screen (AID 1156); settings: P. falciparum-infected erythrocytes, osmotic lysis, higher = more signal, called active from +8 up or from −8 down
readout.type: z-score
Answer with a number only.

Some solved cases for reference:
C=C(CCCC)/C(=C/C[C@H](OC(C)=O)c1ccc(OCCO)cc1)c1cnc2ccccc2c1
1.23
COc1cc(CO)cc(I)c1O[C@H]1C=C(C(=O)NCCO)C[C@@H](N(C(=O)c2cc3ccccc3oc2=O)C2CCCCCC2)[C@@H]1O
1.19
CCCCN1CC=CC23O[C@@H]4C=CCOC(=O)[C@@H]4[C@H]2C(=O)N(CCCCCCO)[C@@H]3C1=O (stereo not given in full)
1.09
Cc1ccc(S[C@]2(C(=O)O)CC(=O)N(Cc3ccccc3C(F)(F)F)[C@@H]2c2ccc(CO)cc2I)cc1
0.591

So what's the measured z-score for this one? COC(=O)[C@@]1(Cc2ccccc2)[C@H]2c3cc(C(=O)N(C)C)n(CCc4c[nH]c5ccc(O)cc45)c3C[C@H]2CN1C(=O)c1ccccc1
0.102

###

assay: S6 kinase pathway phospho-S6 level changes – cell-based, A549, cytoblot, luminescence, serum-stimulated, primary screen (AID 1158); settings: 5 h, higher = more signal;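 note: serum-stimulated A549 lung adenocarcinoma cells; signal is phosphorylated S6 detected by cytoblot immunostaining with HRP secondary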
Collected z-score values appear next to each entry.
Enter the number alone.

For C=CC[C@]1(C(=O)N2CCOCC2)N=C(c2ccc(OCCCO)cc2)O[C@H]1c1ccccc1N=[N+]=[N-] , what is its reported z-score?
2.04

Give the measured z-score of COC(=O)c1c(CC[C@@H](CO)NC(=O)N[C@@H](Cc2ccccc2)Cn2cc(-c3ccccn3)nn2)oc(C(=O)N2CCOCC2)c1C(=O)OC .
0.291

Please look up its z-score: [N-]=[N+]=Nc1ccccc1[C@H]1OC(c2ccc(OCCCO)cc2)=N[C@@]1(CCS(=O)(=O)c1ccccc1)C(=O)NCc1ccccc1
-0.234

Reported z-score for COCCOC(=O)N1C(=O)[C@@]2(c3ccccc31)[C@H](C(=O)N1CCc3cc(OC)c(OC)cc3C1)[C@H]1C(=O)O[C@H](c3ccccc3)[C@H](c3ccccc3)N1[C@@H]2c1ccc(O)cc1 : what is it?
2.38

Fill in the blank: the reported z-score of COCCCNC(=O)[C@@H]1c2ccccc2C(=O)N(Cc2ccccc2OC)[C@H]1c1ccc(CO)cc1 is ____.
2.45

Any idea what its z-score is? The molecule is CCOC(=O)C1=CC[C@@H](c2ccc(C(F)(F)F)cc2)N(S(=O)(=O)c2ccc(C)cc2)[C@H]1c1ccccc1
-0.356

Which z-score reading was recorded for the molecule O=C1OCCC/C=C\[C@H]2OC34C=CCN(c5ccc6ccccc6c5)C(=O)[C@H]3N(CCCCCO)C(=O)[C@@H]4C12 (stereo partly drawn) ?
-0.839

Fill blank: measured z-score of the molecule C=CCC(OC(C)=O)[C@@H]1[C@@H](N(Cc2cc3ccccc3o2)C(=O)Cc2ccc(OC)cc2)c2cc(OCCCO)ccc2N1C(=O)c1ccc2ccccc2c1 (stereo partly drawn) is ____.
0.559

What value of z-score has been reported for the following molecule? CC(CO)N1C(=O)[C@@H]2C3C(=O)OCCC/C=C\[C@H]3OC23C=CCN(CCN2CCOCC2)C(=O)[C@@H]13 (stereo partly drawn)
0.0058

Reported z-score, molecule COC(=O)[C@@]1(Cc2ccccc2)[C@H]2c3cc(C(=O)N(C)C)n(Cc4ccc(OC)c(OC)c4)c3C[C@H]2CN1C(=O)c1ccccc1 : ____
-0.399

# query: z-score of entry CC(c1ccccc1)C(O)C1C=CC2C(=O)N(c3ccccc3)C(=O)C2N1Nc1ccccc1 (stereo not drawn)
1.95

What does the data say about its z-score? Entry: CN1C(=O)C2C=CC(C(O)c3ccc(F)cc3)N(N(c3ccccc3)c3ccccc3)C2C1=O (stereo not drawn)
-1.16

# query: z-score of entry CCCCCCCCCCC(O)C1C=CC2C(=O)NC(=O)C2N1Nc1ccc(Cl)cc1Cl (stereo not drawn)
-0.428
